test system: Platelet; test: Antiplatelet activity in human platelet-rich plasma assessed as inhibition of arachidonic acid-induced aggregation at 100 uM incubated for 5 mins prior to arachidonic acid-challenge measured for 3 mins by turbidrometric analysis relative to control; format: functional
The source made the active and inactive calls. The calls are words filed in the database; no cut-off is given here.
Please state which outcome applies, choosing from class 1 for active, class 0 for inactive

COc1ccccc1N1CCN(C(=O)/C=C/c2cn(-c3ccccc3)nc2-c2ccncc2)CC1	class 0
O=C(/C=C/c1cn(-c2ccccc2)nc1-c1ccncc1)N1CCOCC1	class 1
O=C(/C=C/c1cn(-c2ccccc2)nc1-c1ccncc1)N1CCN(c2cccc(Cl)c2)CC1	class 0
O=C(O)/C=C/c1cn(-c2ccccc2)nc1-c1ccncc1	class 0

Field: next molecule
INPUT: Tell me the assay call for `Cc1cccc(N2CCN(C(=O)/C=C/c3cn(-c4ccccc4)nc3-c3ccncc3)CC2)c1C` please.
OUTPUT: class 0
